# maps each entry to its TGI
# Tested on: HCT-116 colon
# TEST_DETAILS: NCI tumour cell line growth inhibition, 48 h
READOUT: TGI (µM)

C=C1CCCC2[C@](C)(CC3=C(O)C(=O)C=C(OC)C3=O)[C@@H](C)CC[C@]12C (stereo not given in full) = 17.7
O=[N+]([O-])c1ccc(O)c(/C=N/c2nc(-c3ccccc3)cs2)c1 = 80.9
CC(=O)OC(C)c1cc2c(s1)C(=O)c1c(C(C)OC(C)=O)csc1C2=O (stereo not given) = 10.2
Cc1ncc(C(=O)Nc2ccc(CN3CCN(C)CC3)c(C(F)(F)F)c2)cc1C#Cc1c(N)ncc2ccccc12 = 0.62
COc1ccc2c(c1)c1nn(CCN3CCCCC3)c3ccc4c(=O)n(CCN(C)C)c(=O)n2c4c13 = 0.0213
CCN(CC)CCOc1ccc(C(O)(Cc2ccc(OC)cc2)c2ccccc2)cc1 (stereo not given) = 26.8
COc1ccc2c(c1)c(-c1ccc(-c3cn(C)c4ccc(OC)cc34)[nH]1)cn2C = 12.7
O=C(CSc1nnc(-c2ccc(N=Cc3ccc(Cl)cc3)cc2)o1)Nc1ccc([N+](=O)[O-])cc1 = 9.43
COc1ccc2c(c1)CCN1CCCc3ccccc3C21 (stereo not given) = 92.8
O=C(N/N=C/c1ccc(Cl)cc1Cl)c1ccc2nc(-c3ccc(Cl)cc3)[nH]c2c1 = 3.51
Cc1ccc2c(C(=O)c3c(C)n(CCN4CCOCC4)c4ccccc34)cccc2c1 = 40.9
